# targetOrTestSystem: PolQ ATPase enzyme (1-894) (Homo sapiens (Human), UniProt O75417)
# Sequence (O75417 1-894): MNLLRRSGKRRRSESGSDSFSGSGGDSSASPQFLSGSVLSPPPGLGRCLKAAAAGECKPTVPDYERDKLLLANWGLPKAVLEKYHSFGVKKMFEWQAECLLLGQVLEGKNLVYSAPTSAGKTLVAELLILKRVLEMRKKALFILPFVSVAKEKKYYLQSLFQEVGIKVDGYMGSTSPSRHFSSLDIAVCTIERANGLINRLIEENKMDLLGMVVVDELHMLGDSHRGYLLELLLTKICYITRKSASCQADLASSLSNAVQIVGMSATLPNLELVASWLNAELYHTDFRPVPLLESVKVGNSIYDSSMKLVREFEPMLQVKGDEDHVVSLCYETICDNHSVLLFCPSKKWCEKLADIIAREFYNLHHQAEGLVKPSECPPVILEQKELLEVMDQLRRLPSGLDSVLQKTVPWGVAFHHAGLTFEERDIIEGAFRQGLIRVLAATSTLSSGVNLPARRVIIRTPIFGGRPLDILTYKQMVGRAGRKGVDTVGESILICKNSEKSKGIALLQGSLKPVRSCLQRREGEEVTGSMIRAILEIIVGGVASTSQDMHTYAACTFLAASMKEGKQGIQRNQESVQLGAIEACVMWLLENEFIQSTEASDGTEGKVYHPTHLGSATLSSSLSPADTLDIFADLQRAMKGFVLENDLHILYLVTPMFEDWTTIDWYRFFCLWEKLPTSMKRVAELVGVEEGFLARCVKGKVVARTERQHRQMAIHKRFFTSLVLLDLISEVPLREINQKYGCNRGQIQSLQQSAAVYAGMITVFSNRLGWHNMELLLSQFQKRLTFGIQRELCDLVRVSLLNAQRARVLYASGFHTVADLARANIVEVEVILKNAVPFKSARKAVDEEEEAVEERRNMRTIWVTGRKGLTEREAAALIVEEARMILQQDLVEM
# measurementNotes: Polθ ATPase enzymatic assay (0.5 nM enzyme concentration), ADP-Glo
# Format: biochemical
# details: 0.5 nM PolQ ATPase enzyme (1-894); average IC50
quantityKind: IC50

The examples below pair each entry with its known result.
[
  {
    "compound": "COc1cnc(C(F)F)cc1-c1cc(N2CCN(C(=O)C(C)(C)C)C3(CC3)C2=O)ncc1C(=O)Nc1nnc(C#CC2CC2)s1",
    "quantityKind": "IC50",
    "readoutValue": "0.39 nM"
  },
  {
    "compound": "COc1cnc(C(F)F)cc1-c1cc(-n2ccc(C#N)cc2=O)ncc1C(=O)Nc1nnc(C#CC2CC2)s1",
    "quantityKind": "IC50",
    "readoutValue": "< 0.25 nM"
  },
  {
    "compound": "C#C[C@H]1CC1c1nnc(NC(=O)c2cnc(N3CCOC4(CC4)C3=O)cc2-c2cc(C(F)F)ncc2OC)s1 (single isomer, unassigned)",
    "quantityKind": "IC50",
    "readoutValue": "0.75 nM"
  },
  {
    "compound": "CCOC(=O)N1CCN(c2cc(-c3cc(C(F)F)ncc3OC)c(C(=O)Nc3nnc(C#CC4CC4)s3)cn2)C(=O)C12CC2",
    "quantityKind": "IC50",
    "readoutValue": "0.38 nM"
  },
  {
    "compound": "COc1cnc(C(F)F)cc1-c1cc(-n2ccc(C)cc2=O)ncc1C(=O)Nc1nnc(C2C[C@@H]2c2cscn2)s1 (mixture of isomers)",
    "quantityKind": "IC50",
    "readoutValue": "0.25 nM"
  }
]

## Task Form entry - test system: PolQ ATPase enzyme (1-894) (Homo sapiens (Human), UniProt O75417); read-out: IC50; compound: "C#C[C@H]1C[C@@H]1c1nnc(NC(=O)c2cnc(-n3ccc(N4CCN(C)CC4)cc3=O)cc2-c2cc(C(F)F)ncc2OC)s1"
## Result 0.79 nM

----------
# targetOrTestSystem: PolQ ATPase enzyme (1-894) (Homo sapiens (Human))
# measurementNotes: Polθ ATPase enzymatic assay (3 nM enzyme concentration), ADP-Glo
# Assay type: biochemical
quantityKind: pIC50
Value format note: pIC50 is -log10 of concentration (mol/L); just state the number.

## Task Any idea what its pIC50 is? The molecule is COc1ccc(F)cc1-c1cnccc1C(=O)Nc1nnc([C@@H]2C[C@H]2c2nc3ccccc3n2C)s1 (racemic)
## Result 7.04

----------
# targetOrTestSystem: PolQ ATPase enzyme (1-894) (Homo sapiens (Human))
# measurementNotes: Polθ ATPase enzymatic assay (0.5 nM enzyme concentration), ADP-Glo
# Format: biochemical
# details: 0.5 nM PolQ ATPase enzyme (1-894); average IC50
quantityKind: IC50 (nM)
Write the answer as a number in nM, unit excluded.

// below: answered molecules
[
  {
    "molecule": "COc1cnc(C(F)F)cc1-c1cc(C#CCN2CC[S+]([O-])CC2)ncc1C(=O)Nc1nnc(C#CC2CC2)s1 [Compound 596]",
    "IC50 [nM]": 0.45
  },
  {
    "molecule": "C#C[C@@H]1CC1c1nnc(NC(=O)c2cnc(-n3ccc(C)cc3=O)cc2-c2cc(C(F)F)ncc2OC)s1 (mixture of isomers) [Compound 593]",
    "IC50 [nM]": 9.9
  },
  {
    "molecule": "COc1cnc(C(F)F)cc1-c1cc(-n2ccc(C3CCN(C)CC3)cc2=O)ncc1C(=O)Nc1nnc(C#CC2CC2)s1 [Compound 536]",
    "IC50 [nM]": 0.96
  }
]

Query molecule follows.
## Task GET /values?readout=IC50&item= COc1cnc(C(F)F)cc1-c1cc(-n2cccc(Cl)c2=O)ncc1C(=O)Nc1nnc([C@H]2C[C@@H]2C(F)(F)F)s1 [Compound 607]
## Result 0.95

----------
# targetOrTestSystem: PolQ ATPase enzyme (1-894) (Homo sapiens (Human))
# measurementNotes: Polθ ATPase enzymatic assay (0.5 nM enzyme concentration), ADP-Glo
# Assay type: biochemical
# details: 0.5 nM PolQ ATPase enzyme (1-894); average IC50
quantityKind: IC50 (nM)
Note: unit nM is implicit; provide only the numeric part.

Here is how some compounds turned out for IC50.
[
  {
    "querySmiles": "COc1cnc(C(F)F)cc1-c1cc(-n2ccc(N3CCN(C)CC3)cc2=O)ncc1C(=O)Nc1nnc(C#CC2CC2)s1",
    "targetOrTestSystem": "PolQ ATPase enzyme (1-894) (Homo sapiens (Human))",
    "IC50 (nM)": 0.73
  },
  {
    "querySmiles": "COc1cnc(C(F)F)cc1-c1cc(C#CCCN2CCOCC2)ncc1C(=O)Nc1nnc(C#CC2CC2)s1",
    "targetOrTestSystem": "PolQ ATPase enzyme (1-894) (Homo sapiens (Human))",
    "IC50 (nM)": 0.55
  }
]

Next item in the queue.
## Task Using the record for "C#C[C@H]1C[C@@H](c2nnc(NC(=O)c3cnc(-n4ccc(C)cc4=O)cc3-c3cc(C(F)F)ncc3OC)s2)C1" , report its IC50.
## Result 3

----------
Below, each entry is listed alongside its reported IC50.
# targetOrTestSystem: PolQ ATPase enzyme (1-894) (Homo sapiens (Human), UniProt O75417)
# measurementNotes: Polθ ATPase enzymatic assay (0.5 nM enzyme concentration), ADP-Glo
# Format: biochemical
# details: 0.5 nM PolQ ATPase enzyme (1-894); average IC50
Report only the number, with the unit nM understood.

Some entries whose results are on file:
[
  {
    "compound": "C#C[C@H]1CC1c1nnc(NC(=O)c2ccc(-c3nnc(C)o3)cc2-c2cc(C(F)F)ncc2OC)s1 (mixture of isomers)",
    "unitSymbol": "nM",
    "readoutValue": 4.6
  },
  {
    "compound": "COc1cnc(C(F)F)cc1-c1cc(C#CCn2ccnc2)ncc1C(=O)Nc1nnc(C#CC2CC2)s1",
    "unitSymbol": "nM",
    "readoutValue": 2.7
  },
  {
    "compound": "COc1cnc(C(F)F)cc1-c1cc(-n2ccc(C)cc2=O)ncc1C(=O)Nc1nnc([C@H]2C[C@@H]2C#N)s1 (racemic)",
    "unitSymbol": "nM",
    "readoutValue": 33.3
  }
]

## Task Checklist item: IC50 tested on PolQ ATPase enzyme (1-894) (Homo sapiens (Human), UniProt O75417), entry "COc1cnc(C(F)F)cc1-c1cc(N2CCN(C=O)C3(CC3)C2=O)ncc1C(=O)Nc1nnc(C#CC2CC2)s1" , value?
## Result 0.27

----------
# targetOrTestSystem: PolQ ATPase enzyme (1-894) (Homo sapiens (Human))
# measurementNotes: Polθ ATPase enzymatic assay (0.5 nM enzyme concentration), ADP-Glo
# Format: biochemical
# details: 0.5 nM PolQ ATPase enzyme (1-894); average IC50
quantityKind: IC50 (nM)
Give just the number in nM; leave the unit off.

Consider the reported IC50 for these compounds:
[
  {
    "compound": "COc1cnc(C(F)F)cc1-c1cc(N2C[C@H](C)OCC2=O)ncc1C(=O)Nc1nnc(C#CC2CC2)s1",
    "IC50 (nM)": 0.36
  },
  {
    "compound": "COc1cnc(C(F)F)cc1-c1cc(-n2ccc(C)cc2=O)ncc1C(=O)Nc1nnc([C@H]2C[C@@H]2c2ccccn2)s1 (racemic)",
    "IC50 (nM)": 0.48
  },
  {
    "compound": "COc1cnc(C(F)F)cc1-c1cc(C#CC(C)(C)N2CCOCC2)ncc1C(=O)Nc1nnc(C#CC2CC2)s1",
    "IC50 (nM)": 0.44
  },
  {
    "compound": "COc1cnc(C(F)F)cc1-c1cc(C#CCN2CCCC2=O)ncc1C(=O)Nc1nnc([C@H]2C[C@@H]2c2cncs2)s1 (racemic)",
    "IC50 (nM)": 0.3
  },
  {
    "compound": "C#C[C@H]1C[C@@H]1c1nnc(NC(=O)c2cnc(-n3cccc(C(F)(F)F)c3=O)cc2-c2cc(C(F)F)ncc2OC)s1",
    "IC50 (nM)": 0.32
  }
]

Please look at the following compound next.
## Task Data request, read-out IC50, for COc1cnc(C(F)F)cc1-c1cc(-n2ccc(C)cc2=O)ncc1C(=O)Nc1nnc([C@H]2C[C@@H]2C2CC2)s1 (racemic)
## Result 0.34

----------
# targetOrTestSystem: PolQ ATPase enzyme (1-894) (Homo sapiens (Human))
# measurementNotes: Polθ ATPase enzymatic assay (0.5 nM enzyme concentration), ADP-Glo
# Type: biochemical
# details: 0.5 nM PolQ ATPase enzyme (1-894); average IC50
Quick list: IC50 per entry.

[
  {
    "compound": "C=C[C@H]1C[C@@H]1c1nnc(NC(=O)c2cnc(-n3ccc(C)cc3=O)cc2-c2cc(C(F)F)ncc2OC)s1 (racemic) [Compound 585]",
    "IC50": "0.47 nM"
  },
  {
    "compound": "COC(=O)N1CCN(c2cc(-c3cc(C(F)F)ncc3OC)c(C(=O)Nc3nnc(C#CC4CC4)s3)cn2)C(=O)C12CC2 [Compound 505]",
    "IC50": "< 0.25 nM"
  },
  {
    "compound": "COc1cnc(C(F)F)cc1-c1cc(-c2ccc(C)nc2OC)ncc1C(=O)Nc1nnc(C#CC2CC2)s1 [Compound 501]",
    "IC50": "0.93 nM"
  }
]

## Task What reported IC50 corresponds to COc1cnc(C(F)F)cc1-c1cc(-n2cc(C)ccc2=O)ncc1C(=O)Nc1nnc([C@H]2C[C@@H]2C(F)(F)F)s1 [Compound 551] on PolQ ATPase enzyme (1-894) (Homo sapiens (Human))?
## Result 0.47 nM

## Task Test system PolQ ATPase enzyme (1-894) (Homo sapiens (Human)); read-out IC50; what value for COc1cnc(C(F)F)cc1-c1cc(-n2ccc(C)cc2=O)ncc1C(=O)Nc1nnc(C#CC2CCOCC2)s1 [Compound 487] ?
## Result < 0.25 nM

## Task Find IC50 (PolQ ATPase enzyme (1-894) (Homo sapiens (Human))) for the entry COc1cnc(C(F)F)cc1-c1cc(-n2cc(C)c(C)cc2=O)ncc1C(=O)Nc1nnc(C#CC2CC2)s1 [Compound 476]
## Result < 0.25 nM

## Task Form field - read-out: IC50; system: PolQ ATPase enzyme (1-894) (Homo sapiens (Human)); submitted item: COc1cnc(C(F)F)cc1-c1cc(-n2ccc(N3CC4(COC4)C3)cc2=O)ncc1C(=O)Nc1nnc(C#CC2CC2)s1 [Compound 613]
## Result 0.35 nM
